Test system: A549
Assay: Survival of human A549 cells after 48 hrs by MTS reduction assay
Assay type: functional, cell-based
Conditions: a549
measured_parameter: pIC50
pIC50 here is simply -log10 of the concentration when that concentration is written in mol/L.

In: Can you look up pIC50 on A549 for `Oc1[nH]c2c(Br)cccc2c1C1=Nc2ccccc2/C1=N\OCCN1CCNCC1` ?
Out: 5.23

In: Thanks! And `Cn1c(O)c(C2=Nc3ccccc3/C2=N\OCCN2CCCC2)c2cccc(Br)c21` ?
Out: 4.68

In: Thanks! And `CN(C)CCO/N=C1/C(c2c(O)[nH]c3c(Br)cccc23)=Nc2ccccc21.Cl` ?
Out: 5.24

In: Thanks! And `CN(C)CCO/N=C1/C(c2c(O)[nH]c3c(Br)cccc23)=Nc2ccccc21` ?
Out: 4.66

====

Can you tell me pIC50 for the items I'm about to list?
Tested on: BP8
Assay: Survival of […] AhR -/- BP8 cells after 48 hrs by MTS reduction assay
Assay type: functional, cell-based
Settings: bp8
pIC50 here is simply -log10 of the concentration when that concentration is written in mol/L.

In: Returns the measured pIC50 for the input molecule. Input: `Oc1[nH]c2c(Br)cccc2c1C1=Nc2ccccc2/C1=N\OCCN1CCNCC1`
Out: 5.25

In: Thanks! And `Cl.Cn1c(O)c(C2=Nc3ccccc3/C2=N\OCCN2CCCC2)c2cccc(Br)c21` ?
Out: 5.12

In: Thanks! And `Cn1c(O)c(C2=Nc3ccccc3/C2=N\OCCN2CCCC2)c2cccc(Br)c21` ?
Out: 4.73

In: Thanks! And `CN(C)CCO/N=C1/C(c2c(O)[nH]c3c(Br)cccc23)=Nc2ccccc21` ?
Out: 4.71

====

Can you tell me pIC50 for the items I'm about to list?
System: Huh-7
Test: Survival of human Huh7 cells after 48 hrs by MTS reduction assay
Assay type: functional, cell-based
Settings: Homo sapiens, Huh-7, 48 h
pIC50 here is simply -log10 of the concentration when that concentration is written in mol/L.

In: Returns the measured pIC50 for the input compound. Input: `O=Nc1c(-c2c(O)[nH]c3c(Br)cccc23)[nH]c2ccccc12`
Out: 5.05

In: Thanks! And `CN(C)CCO/N=C1/C(c2c(O)n(C)c3c(Br)cccc23)=Nc2ccccc21.Cl` ?
Out: 4.74

In: Thanks! And `Cl.Oc1[nH]c2c(Br)cccc2c1C1=Nc2ccccc2/C1=N\OCCN1CCCC1` ?
Out: 4.87

In: Thanks! And `CN(C)CCO/N=C1/C(c2c(O)[nH]c3c(Br)cccc23)=Nc2ccccc21.Cl` ?
Out: 4.95

====

Test: Survival of mouse F1 cells after 48 hrs by MTS reduction assay
Details: Mus musculus, F1, 48 h
measured_parameter: pIC50
pIC50 here is simply -log10 of the concentration when that concentration is written in mol/L.

In: Returns the measured pIC50 for the input compound. Input: `Cl.Oc1[nH]c2c(Br)cccc2c1C1=Nc2ccccc2/C1=N\OCCN1CCCC1`
Out: 5.51

In: Thanks! And `Cl.Cl.Oc1[nH]c2c(Br)cccc2c1C1=Nc2ccccc2/C1=N\OCCN1CCNCC1` ?
Out: 5.85

In: Thanks! And `Cl.Cn1c(O)c(C2=Nc3ccccc3/C2=N\OCCN2CCCC2)c2cccc(Br)c21` ?
Out: 5.54

In: Thanks! And `CN(C)CCO/N=C1/C(c2c(O)n(C)c3c(Br)cccc23)=Nc2ccccc21.Cl` ?
Out: 5.27

In: Thanks! And `O=Nc1c(-c2c(O)[nH]c3c(Br)cccc23)[nH]c2ccccc12` ?
Out: 5.10

====

Test system: SH-SY5Y
Test: Survival of human SH-SY5Y cells at 25 uM by MTS reduction assay
Type: functional, cell-based
Details: Homo sapiens, SH-SY5Y; read-out: Survival
measured_parameter: viability at 25 µM
Number first, unit second.

In: Can you look up viability at 25 µM on SH-SY5Y for `O=Nc1c(-c2c(O)[nH]c3ccccc23)[nH]c2ccccc12` ?
Out: 27%

In: Thanks! And `Cn1c(O)c(-c2[nH]c3ccccc3c2N=O)c2cccc(Br)c21` ?
Out: 84%

In: Thanks! And `CO/N=C1/C(c2c(O)n(C)c3c(F)cccc23)=Nc2ccccc21` ?
Out: 107%

In: Thanks! And `CC(=O)O/N=C1/C(c2c(O)[nH]c3c(Br)cccc23)=Nc2ccccc21` ?
Out: 61%

In: Thanks! And `CCN(CC)C(=O)O/N=C1/C(c2c(O)[nH]c3c(Br)cccc23)=Nc2ccccc21` ?
Out: 106%

In: Thanks! And `CO/N=C1/C(c2c(O)[nH]c3c(F)cccc23)=Nc2ccccc21` ?
Out: 105%

In: Thanks! And `CC(=O)O/N=C1/C(c2c(O)[nH]c3c(Cl)cccc23)=Nc2ccccc21` ?
Out: 89%

In: Thanks! And `Cn1c(O)c(C2=Nc3ccccc3C2=O)c2cccc(F)c21` ?
Out: 101%

In: Thanks! And `CO/N=C1/C(c2c(O)[nH]c3c(I)cccc23)=Nc2ccccc21` ?
Out: 84%

In: Thanks! And `CC(=O)O/N=C1/C(c2c(O)n(C)c3c(I)cccc23)=Nc2ccccc21` ?
Out: 82%

====

System: HEK293
Assay: Survival of human HEK293 cells after 48 hrs by MTS reduction assay
Type: functional, cell-based
Settings: hek293
Can you tell me pIC50 for the items I'm about to list?
pIC50 here is simply -log10 of the concentration when that concentration is written in mol/L.

In: Returns the measured pIC50 for the input molecule. Input: `Cl.Cn1c(O)c(C2=Nc3ccccc3/C2=N\OCCN2CCCC2)c2cccc(Br)c21`
Out: 5.10

In: Thanks! And `CN(C)CCO/N=C1/C(c2c(O)[nH]c3c(Br)cccc23)=Nc2ccccc21` ?
Out: 4.84

In: Thanks! And `CN(C)CCO/N=C1/C(c2c(O)[nH]c3c(Br)cccc23)=Nc2ccccc21.Cl` ?
Out: 5.52

In: Thanks! And `Oc1[nH]c2c(Br)cccc2c1C1=Nc2ccccc2/C1=N\OCCN1CCNCC1` ?
Out: 5.30

In: Thanks! And `Cl.Cl.Oc1[nH]c2c(Br)cccc2c1C1=Nc2ccccc2/C1=N\OCCN1CCNCC1` ?
Out: 5.72

In: Thanks! And `Cn1c(O)c(C2=Nc3ccccc3/C2=N\OCCN2CCCC2)c2cccc(Br)c21` ?
Out: 4.67

====

Biological target: Cyclin-dependent kinase 5/CDK5 activator 1 (Homo sapiens, UniProt Q00535)
Sequence (Q00535 whole entry): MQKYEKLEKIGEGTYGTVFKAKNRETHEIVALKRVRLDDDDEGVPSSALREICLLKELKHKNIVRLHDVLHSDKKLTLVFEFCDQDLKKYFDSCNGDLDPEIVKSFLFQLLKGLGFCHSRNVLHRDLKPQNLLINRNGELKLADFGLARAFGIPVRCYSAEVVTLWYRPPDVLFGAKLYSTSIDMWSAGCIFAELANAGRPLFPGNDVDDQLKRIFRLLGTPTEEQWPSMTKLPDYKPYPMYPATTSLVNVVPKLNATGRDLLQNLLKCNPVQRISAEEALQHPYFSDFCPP
Sequence (Q15078 whole entry, further chain): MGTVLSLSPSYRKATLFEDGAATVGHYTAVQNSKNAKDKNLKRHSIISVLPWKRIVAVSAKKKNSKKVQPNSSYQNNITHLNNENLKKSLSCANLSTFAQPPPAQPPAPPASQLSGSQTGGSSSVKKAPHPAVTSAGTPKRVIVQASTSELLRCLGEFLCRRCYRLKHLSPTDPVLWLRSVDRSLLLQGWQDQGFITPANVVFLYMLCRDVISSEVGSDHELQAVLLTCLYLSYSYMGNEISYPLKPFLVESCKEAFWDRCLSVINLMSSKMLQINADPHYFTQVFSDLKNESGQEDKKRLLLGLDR
Experiment: Inhibition of mammalian CDK5/p25
measured_parameter: IC50

In: Returns the measured IC50 for the input compound. Input: `CC(=O)O/N=C1/C(c2c(O)n(C)c3c(Cl)cccc23)=Nc2ccccc21`
Out: > 100 µM

In: Thanks! And `CO/N=C1/C(c2c(O)n(C)c3c(Br)cccc23)=Nc2ccccc21` ?
Out: > 100 µM

In: Thanks! And `O=Nc1c(-c2c(O)[nH]c3c(I)cccc23)[nH]c2ccccc12` ?
Out: 77 µM

In: Thanks! And `CO/N=C1/C(c2c(O)n(C)c3c(Cl)cccc23)=Nc2ccccc21` ?
Out: > 100 µM

In: Thanks! And `Cl.Oc1[nH]c2c(Br)cccc2c1C1=Nc2ccccc2/C1=N\OCCN1CCOCC1` ?
Out: > 10 µM

====

System: SH-SY5Y
Test: Survival of human SH-SY5Y cells at 25 uM by MTS reduction assay
Type: functional, cell-based
Conditions: Homo sapiens, SH-SY5Y; read-out: Survival
measured_parameter: viability at 25 µM (%)
# output: bare number, implied unit %

In: Returns the measured viability at 25 µM for the input compound. Input: `CO/N=C1/C(c2c(O)n(C)c3c(Br)cccc23)=Nc2ccccc21`
Out: 100

In: Thanks! And `O=C1Nc2ccc(Br)cc2/C1=C1/Nc2ccccc2/C1=N\O` ?
Out: 13

In: Thanks! And `Cn1c(O)c(C2=Nc3ccccc3/C2=N\OCCBr)c2cccc(Br)c21` ?
Out: 99

In: Thanks! And `CO/N=C1/C(c2c(O)n(C)c3c(I)cccc23)=Nc2ccccc21` ?
Out: 99

In: Thanks! And `Oc1[nH]c2c(Br)cccc2c1C1=Nc2ccccc2/C1=N\OCCBr` ?
Out: 87

In: Thanks! And `Cn1c(O)c(-c2[nH]c3ccccc3c2N=O)c2cccc(I)c21` ?
Out: 74

In: Thanks! And `Cn1c(O)c(C2=Nc3ccccc3C2=O)c2ccccc21` ?
Out: 98

In: Thanks! And `Cl.Oc1[nH]c2c(Br)cccc2c1C1=Nc2ccccc2/C1=N\OCCN1CCCC1` ?
Out: 12

In: Thanks! And `CO/N=C1/C(c2c(O)n(C)c3c(Cl)cccc23)=Nc2ccccc21` ?
Out: 99

In: Thanks! And `O=Nc1c(-c2c(O)[nH]c3c(I)cccc23)[nH]c2ccccc12` ?
Out: 64

In: Thanks! And `Cl.Cn1c(O)c(C2=Nc3ccccc3/C2=N\OCCN2CCOCC2)c2cccc(Br)c21` ?
Out: 90

In: Thanks! And `Cl.Cl.Oc1[nH]c2c(Br)cccc2c1C1=Nc2ccccc2/C1=N\OCCN1CCNCC1` ?
Out: 3

In: Thanks! And `O=C1Nc2ccccc2/C1=C1/Nc2ccccc2C1=O` ?
Out: 104

In: Thanks! And `CC(=O)O/N=C1/C(c2c(O)n(C)c3c(Br)cccc23)=Nc2ccccc21` ?
Out: 95

In: Thanks! And `O=Nc1c(-c2c(O)[nH]c3c(Cl)cccc23)[nH]c2ccccc12` ?
Out: 7

In: Thanks! And `CC(=O)O/N=C1/C(c2c(O)[nH]c3c(F)cccc23)=Nc2ccccc21` ?
Out: 39

In: Thanks! And `Cn1c(O)c(-c2[nH]c3ccccc3c2N=O)c2cccc(Cl)c21` ?
Out: 94

In: Thanks! And `O=C1C(c2c(O)[nH]c3c(Br)cccc23)=Nc2ccccc21` ?
Out: 92

In: Thanks! And `Cn1c(O)c(C2=Nc3ccccc3C2=O)c2cccc(Br)c21` ?
Out: 98

In: Thanks! And `Cn1c(O)c(-c2[nH]c3ccccc3c2N=O)c2ccccc21` ?
Out: 100

In: Thanks! And `O=C1C(c2c(O)[nH]c3c(I)cccc23)=Nc2ccccc21` ?
Out: 96

In: Thanks! And `O=C1C(c2c(O)[nH]c3c(Cl)cccc23)=Nc2ccccc21` ?
Out: 92

// provenance: ChEMBL document CHEMBL1137414
